System: passive cutaneous anaphylaxis (PCA)
METHOD NOTES: Anti-passive cutaneous anaphylaxis activity (PCA) in rats (Test Example 9)
Assay type: in vivo
CONDITION LABEL: Rattus norvegicus, po; 10 mg/kg, 10 animals; read-out: Inhibition, Anti-serum Dilution: × 12
inhibition in vivo at 10 mg/kg for assorted compounds

COMPOUND | VALUE UNIT | inhibition in vivo at 10 mg/kg
Cc1oc(=O)oc1COC(=O)c1ccccc1NC(=O)C(=Cc1ccccc1)C(=O)Nc1ccccc1C(=O)OCc1oc(=O)oc1C | % | 22
COC(=O)c1ccccc1NC(=O)C(=Cc1ccccc1)C(=O)Nc1ccccc1C(=O)OC | % | 28.1
O=C(Nc1ccccc1C(=O)OC1OC(=O)c2ccccc21)C(=Cc1ccccc1)C(=O)Nc1ccccc1C(=O)OC1OC(=O)c2ccccc21 (stereo not shown) | % | 44.7
CCOC(=O)OC(C)OC(=O)c1ccccc1NC(=O)C(=Cc1ccccc1)C(=O)Nc1ccccc1C(=O)OC(C)OC(=O)OCC (stereo not shown) | % | 40.2
CC(C)(C)OC(=O)c1ccccc1NC(=O)C(=Cc1ccccc1)C(=O)Nc1ccccc1C(=O)OC(C)(C)C | % | 33
CC(C)(C)C(=O)OCOC(=O)c1ccccc1NC(=O)C(=Cc1ccccc1)C(=O)Nc1ccccc1C(=O)OCOC(=O)C(C)(C)C | % | 37
CCOC(=O)c1ccccc1NC(=O)C(=Cc1ccccc1)C(=O)Nc1ccccc1C(=O)OCC | % | 29.8

---

TGT: hyaluronidase (Bos taurus, UniProt Q2YDK3)
Sequence (Q2YDK3 36-553): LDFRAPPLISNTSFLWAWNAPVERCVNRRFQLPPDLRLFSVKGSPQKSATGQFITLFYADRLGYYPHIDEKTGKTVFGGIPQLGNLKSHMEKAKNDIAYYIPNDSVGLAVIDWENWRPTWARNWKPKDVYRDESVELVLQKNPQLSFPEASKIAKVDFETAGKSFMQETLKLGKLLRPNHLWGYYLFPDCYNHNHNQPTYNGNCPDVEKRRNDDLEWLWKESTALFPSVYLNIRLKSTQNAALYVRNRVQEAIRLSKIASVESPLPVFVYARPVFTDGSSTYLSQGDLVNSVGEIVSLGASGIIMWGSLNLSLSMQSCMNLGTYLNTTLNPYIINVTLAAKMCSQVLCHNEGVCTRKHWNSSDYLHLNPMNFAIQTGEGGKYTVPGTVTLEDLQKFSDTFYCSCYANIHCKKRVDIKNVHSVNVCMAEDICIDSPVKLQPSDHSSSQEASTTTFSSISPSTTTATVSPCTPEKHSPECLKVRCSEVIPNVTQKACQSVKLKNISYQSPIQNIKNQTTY
METHOD NOTES: Anti-hyaluronidase activity (modified Morgan-Elson method)
Type: biochemical
CONDITION LABEL: hyaluronidase 340NF unit/ml; activating agent Compound 48/80 or CaCl2; read-out: IC50
pIC50: −log10 of the molar value.
pIC50 for assorted compounds

COMPOUND | TGT | pIC50
O=C(Nc1ccccc1C(=O)O)C(=Cc1ccccc1)C(=O)Nc1ccccc1C(=O)O [Compound 11] | hyaluronidase (Bos taurus, UniProt Q2YDK3) | 4.66
O=C(O)c1ccccc1NC(=O)C(Cc1ccccc1)C(=O)Nc1ccccc1C(=O)O [Compound 50] | hyaluronidase (Bos taurus, UniProt Q2YDK3) | 4.30
O=C(Nc1ccccc1C(=O)O)C(=Cc1ccc2c(c1)OCO2)C(=O)Nc1ccccc1C(=O)O [Compound 25] | hyaluronidase (Bos taurus, UniProt Q2YDK3) | 4.89
O=C(Nc1ccccc1C(=O)O)C(=Cc1ccc(C(F)(F)F)cc1)C(=O)Nc1ccccc1C(=O)O [Compound 35] | hyaluronidase (Bos taurus, UniProt Q2YDK3) | 4.82

---

TGT: UniProtKB Q2YDK3
METHOD NOTES: Anti-hyaluronidase activity (modified Morgan-Elson method)
Format: biochemical
CONDITION LABEL: value marked (IC10); read-out: IC10 (printed in IC50 (mM) column)
hey, just use Satisfied if measured IC10 is less than 0.3 mM, otherwise Not satisfied

ENTRY SMILES | CATEGORY LABEL
COc1ccc(C(=O)O)cc1NC(=O)C(=Cc1ccccc1)C(=O)Nc1cc(C(=O)O)ccc1OC | Satisfied
Cc1ccc(NC(=O)CC(=O)Nc2ccc(C)cc2C(=O)O)c(C(=O)O)c1 | Not satisfied
CCOC(=O)c1ccccc1NC(=O)CC(=O)Nc1ccccc1C(=O)OCC | Satisfied
COc1ccc(C(=O)O)cc1NC(=O)CC(=O)Nc1cc(C(=O)O)ccc1OC | Satisfied
O=C(CC(=O)Nc1cc(Cl)ccc1C(=O)O)Nc1cc(Cl)ccc1C(=O)O | Not satisfied
